# subject-of-test: T1, HLA-DP DPB1*0401 (human)
# T1 chain 1: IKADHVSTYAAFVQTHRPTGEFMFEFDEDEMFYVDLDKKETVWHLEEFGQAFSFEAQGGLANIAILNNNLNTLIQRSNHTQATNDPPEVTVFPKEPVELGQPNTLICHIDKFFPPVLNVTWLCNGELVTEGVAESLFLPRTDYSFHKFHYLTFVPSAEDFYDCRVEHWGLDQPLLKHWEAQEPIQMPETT
# T1 chain 2: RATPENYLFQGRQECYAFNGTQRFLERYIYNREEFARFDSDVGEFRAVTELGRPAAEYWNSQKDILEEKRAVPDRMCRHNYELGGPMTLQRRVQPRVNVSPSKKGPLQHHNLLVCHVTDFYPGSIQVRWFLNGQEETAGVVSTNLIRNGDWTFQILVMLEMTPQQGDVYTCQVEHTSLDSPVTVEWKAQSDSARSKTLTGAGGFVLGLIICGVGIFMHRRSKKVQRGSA
# experimental-protocol: inhibition of radiolabeled peptide binding to purified HLA-DP
Quick reference: IC50 of the listed items.

Below, 2 binders whose answers are already recorded.
1) ASVIPPARLFKAFVL [Que a 1 peptide 11-25 ASVIPPARLFKAFVL (Peptide ID 3324.1587)] :: 0.917 µM
2) IKSDKPLKGPFNFRF [Lol p 2 peptide 56-70 IKSDKPLKGPFNFRF (Peptide ID 3324.1140)] :: 12.3 µM

Data request: State its IC50: DGVWEIKSDKPLKGP [Lol p 2 peptide 51-65 DGVWEIKSDKPLKGP (Peptide ID 3324.1139)]
Data returned: 5.21 µM

Data request: State its IC50: RYANPIAFFRKEPLK [Lol p 11 peptide 111-125 RYANPIAFFRKEPLK (Peptide ID 3324.1138)]
Data returned: 2.06 µM

Ref: patent US20150004189A1
